target.under.test: Dual specificity tyrosine-phosphorylation-regulated kinase 1A (Homo sapiens, UniProt Q13627)

structure.smiles.string | IC50
CC(C)CN1CCC(C#Cc2cc(-c3cn(C4CCOCC4)c4cnccc34)ccn2)CC1 | 10 to 100 nM
O=C(O)c1ccc(-c2cnc3n2CC(=O)N(C2CCOCC2)C3)cc1 | > 1000 nM
CC(=O)N1CCC(n2cnc3ccc(-c4ccncc4)cc32)CC1 | 10 to 100 nM
CN1CCC(C(=O)Nc2cc(-c3cc(Cl)cc4ncccc34)ccn2)CC1 | 100 to 1000 nM
CS(=O)(=O)N1CCC(n2cnc3ccc(-c4ccncc4)cc32)CC1 | 10 to 100 nM
CC(=O)Nc1ccc2cnc(NC(=O)C3CCN(C)CC3)cc2c1 | < 500 nM
COc1cc(-c2ccnc(NC(=O)C3CCN(C)CC3)c2)cc2cnccc12 | 10 to 100 nM

###

target.under.test: Dual specificity tyrosine-phosphorylation-regulated kinase 1A (Homo sapiens, UniProt Q13627)
Below: a set of entries, each annotated with reported IC50.

molecule | IC50
CN1CC2CC(C1)C2C(=O)Nc1nc2ccc(-c3ccncc3)cc2s1 (stereo not drawn) | 0.1 to 1 µM
c1cncc(-c2cc3c(-c4ccc5c(c4)CCO5)cncc3o2)c1 | > 1 µM
COCCn1nc2cnccc2c1-c1ccnc(NC(=O)C2CC2)c1 | > 1 µM
c1cc(-c2ccc3ncsc3c2)c(OC2CCC2)cn1 | 0.1 to 1 µM
COc1cccc(-c2nc3cc(NS(C)(=O)=O)cnc3s2)c1 | > 1 µM
NC(=O)c1ccc(-c2cnc3[nH]cc(C4CCC4)c3c2)cc1 | 0.1 to 1 µM
CC(C)CN1CCC(CNc2cc(-c3c[nH]c4cnccc34)ccn2)CC1 | 0.01 to 0.1 µM
CCN1CCC(C(=O)Nc2cc(-c3ccc4c(c3)ncn4C(F)F)ccn2)CC1 | > 1 µM

###

target.under.test: Dual specificity tyrosine-phosphorylation-regulated kinase 1A (Homo sapiens, UniProt Q13627)

molecule | IC50
Cn1ncc2ccc(-c3cncc(O[C@@H]4Cc5ccccc5[C@@H]4N)c3)cc21 | 100 to 1000 nM
CN1CCC(Oc2cnc3[nH]cc(-c4cc[nH]c(=O)c4)c3n2)C1 (stereo unspecified) | 100 to 1000 nM
CN1CCC(C(=O)Nc2nc3ccc(-c4ccncc4)nc3s2)CC1 | < 10 nM
CN1CCC(C(=O)Nc2cc(-c3cc(=O)n(C)c4ccccc34)ccn2)CC1 | 10 to 100 nM
CN1CCC(C(=O)N2CCn3c(nc4ccc(-c5ccncc5)cc43)C2)CC1 | 10 to 100 nM
CN1CCC(C(=O)Nc2ncc(-c3ccc4ncn(C)c4c3)s2)CC1 | 10 to 100 nM

###

A set of compounds tested on Dual specificity tyrosine-phosphorylation-regulated kinase 1A (Homo sapiens), with measured pIC50:
pIC50: −log10 of the molar value.

compound | target.under.test | pIC50
CC(C)CN1CCC(C(=O)Nc2cc(-c3c[nH]c4cnccc34)ccn2)CC1 [US20250099442, Compound I.3] | Dual specificity tyrosine-phosphorylation-regulated kinase 1A (Homo sapiens) | > 8.00
CN1CCC(C(=O)Nc2ccc3c(-c4ccncc4)c[nH]c3n2)CC1 [US20250099442, Compound I.67] | Dual specificity tyrosine-phosphorylation-regulated kinase 1A (Homo sapiens) | > 8.00
Cc1cc(-c2ccnc(NC(=O)C3CCN(C)CC3)c2)c2ocnc2c1 [US20250099442, Compound I.57] | Dual specificity tyrosine-phosphorylation-regulated kinase 1A (Homo sapiens) | 6.00 to 7.00
CN1C[C@@H]2C(C(=O)Nc3nc4ccc(-c5cccnc5)nc4s3)[C@@H]2C1 (stereo partly specified) [US20250099442, Compound I.70] | Dual specificity tyrosine-phosphorylation-regulated kinase 1A (Homo sapiens) | 6.00 to 7.00
O=S(=O)(c1ccc(F)cc1)N1CCCC(n2cnc3ccc(-c4ccncc4)cc32)C1 (stereo unspecified) [US20250099442, Compound I.39] | Dual specificity tyrosine-phosphorylation-regulated kinase 1A (Homo sapiens) | 6.00 to 7.00
c1cc(-c2ccc3ncn(C4CCCNC4)c3c2)ccn1 (stereo unspecified) [US20250099442, Compound I.19] | Dual specificity tyrosine-phosphorylation-regulated kinase 1A (Homo sapiens) | 7.00 to 8.00
CN1CCC(N2CCn3c(nc4ccc(-c5ccncc5)cc43)C2)CC1 [US20250099442, Compound I.49] | Dual specificity tyrosine-phosphorylation-regulated kinase 1A (Homo sapiens) | 7.00 to 8.00
COc1cc(-c2ccc3nc(NC(=O)C4C5CC4CN(C)C5)sc3c2)ccn1 (stereo unspecified) [US20250099442, Compound I.43] | Dual specificity tyrosine-phosphorylation-regulated kinase 1A (Homo sapiens) | 7.00 to 8.00
CC(C)CN1CCC(O)(C#Cc2ccc3c(-c4ccncc4)c[nH]c3n2)CC1 [US20250099442, Compound I.96] | Dual specificity tyrosine-phosphorylation-regulated kinase 1A (Homo sapiens) | 6.00 to 7.00
CS(=O)(=O)Nc1cnc2sc(-c3cccc(O)c3)nc2c1 [US20250099442, Compound I.13] | Dual specificity tyrosine-phosphorylation-regulated kinase 1A (Homo sapiens) | < 6.00
CN1CCn2c(nc3ccc(-c4ccncc4)cc32)C1 [US20250099442, Compound I.50] | Dual specificity tyrosine-phosphorylation-regulated kinase 1A (Homo sapiens) | < 6.00
CC(C)CN1CCC(CNc2nccc(-c3cn(C(C)C)c4cnccc34)n2)CC1 [US20250099442, Compound I.9] | Dual specificity tyrosine-phosphorylation-regulated kinase 1A (Homo sapiens) | 6.00 to 7.00
c1cc(-c2ccc3c(c2)CCO3)cc(OCC2CCCCN2)n1 (stereo unspecified) [US20250099442, Compound I.36] | Dual specificity tyrosine-phosphorylation-regulated kinase 1A (Homo sapiens) | 6.00 to 7.00
Cc1c(-c2ccncc2)cn2cnc(NC(=O)C3[C@H]4CN(C)C[C@@H]34)cc12 (stereo partly specified) [US20250099442, Compound I.73] | Dual specificity tyrosine-phosphorylation-regulated kinase 1A (Homo sapiens) | 7.00 to 8.00
CN1CCC(C(=O)Nc2cc(-c3ccc4c(c3)ncn4C)ccn2)CC1 [US20250099442, Compound I.34] | Dual specificity tyrosine-phosphorylation-regulated kinase 1A (Homo sapiens) | > 8.00
Cn1nc2cnccc2c1-c1ccnc(NC(=O)C2CC2)c1 [US20250099442, Compound I.25] | Dual specificity tyrosine-phosphorylation-regulated kinase 1A (Homo sapiens) | < 6.00

###

A set of compounds tested on Dual specificity tyrosine-phosphorylation-regulated kinase 1A (Homo sapiens), with measured pIC50:
pIC50: −log10 of the molar value.

compound | pIC50
CN1C2CCC1CC(C(=O)Nc1nc3ccc(-c4ccncc4)nc3s1)C2 (stereo not drawn) | > 8.00
Cc1c(C#CC2CCOCC2)nc2ccc(-c3ccncc3)cn12 | 7.00 to 8.00
N#Cc1ccc(S(=O)(=O)N2CCCC(n3cnc4ccc(-c5ccncc5)cc43)C2)cc1 (stereo not drawn) | 6.00 to 7.00
CN1CCC(C2CN(c3ncc(-c4ccncc4)c4c3C(=O)NC4)C2)CC1 | < 6.00
c1cc(-c2ccc3nc4n(c3c2)CCNC4)ccn1 | 6.00 to 7.00
CN1CC(C(=O)Nc2nc3ccc(-c4ccncc4)cc3s2)C1 | 7.00 to 8.00
OC1(C#Cc2ccc3c(-c4ccncc4)c[nH]c3n2)CCNCC1 | 6.00 to 7.00
Cc1c(-c2ccncc2)cn2cnc(NC(=O)C3C4CNCC43)cc12 (stereo not drawn) | 7.00 to 8.00

###

Below: a set of entries, each annotated with reported pIC50.
target.under.test: Dual specificity tyrosine-phosphorylation-regulated kinase 1A (Homo sapiens)
pIC50: −log10 of the molar value.

structure.smiles.string | pIC50
CN1CCC(C(=O)Nc2nc3ccc(-c4ccncc4)cc3s2)CC1 | > 8.00
CCCOc1cc(COC2CCN(C)CC2)nc2[nH]cc(-c3ccncc3)c12 | 7.00 to 8.00
CCN1CCC(C(=O)Nc2cc(-c3ccc4ncn(C(F)F)c4c3)ccn2)CC1 | 7.00 to 8.00
Fc1ccc(COc2cc(-c3ccc4c(c3)CCO4)ccn2)cc1F | < 6.00
C(#CC1CCOCC1)c1cc(-c2cn(C3CCOCC3)c3cnccc23)ccn1 | > 8.00
CN1CCC(C(=O)Nc2cn3cc(-c4ccncc4)cc3cn2)CC1 | 7.00 to 8.00
COc1cc(-c2ccc3nc(NC(=O)c4cccc(C#N)c4)sc3n2)ccn1 | > 8.00

###

A set of compounds tested on Dual specificity tyrosine-phosphorylation-regulated kinase 1A (Homo sapiens), with measured IC50:

compound | IC50
CC(C)CN1CCC(C(=O)Nc2nccc(-c3cn(C(C)C)c4cnccc34)n2)CC1 [US20250099442, Compound I.8] | 10 to 100 nM
CN1CCC(C#Cc2cc(-c3cn(C4CCOCC4)c4cnccc34)ccn2)CC1 [US20250099442, Compound I.91] | < 10 nM
Cc1cc(-c2cn3ncc(-c4ccc(O)c(C#N)c4)c3c(=O)n2C)ccn1 [US20250099442, Compound I.84] | 10 to 100 nM
CC(C)CN1CCC(C#Cc2nc3ccc(-c4ccnc(N)c4)nc3n2C2CC2)CC1 [US20250099442, Compound I.99] | 10 to 100 nM
c1cncc(-c2ccc3cncc(OC4CCNC4)c3c2)c1 (configuration not stated) [US20250099442, Compound I.87] | 100 to 1000 nM
CN1CCC(C(=O)Nc2cc3cc(-c4ccncc4)cn3cn2)CC1 [US20250099442, Compound I.58] | 10 to 100 nM
c1cc(-c2cnc3[nH]cc(C4CCC4)c3c2)ccn1 [US20250099442, Compound I.16] | > 1000 nM

Data origin, for the record: BindingDB's records for patent US20250099442
